Test System: Left-right determination factor 2 (Homo sapiens)
Assay Notes: LEFTY2 binders on small-molecule microarrays, primary screen, biochemical, small-molecule microarray, 635 nm fluorescence scan (AID 1110)
Experimental Conditions: LEFTY2 binding, higher = more signal
# if value of composite z-score reaches -0.007, tag Y; if it stays below, tag N

[[record]]
compound = "C[C@@]12COC[C@]13C=C(Br)[C@H](C2)[C@@]1(CO1)C3=O"
assigned_class = "N"

[[record]]
compound = "COC(=O)C(CC#Cc1ccc2c(c1)[C@]1(C(=O)N2)[C@H](c2ccc(O)cc2)N2[C@H](c3ccccc3)[C@H](c3ccccc3)OC(=O)[C@H]2[C@@H]1C(=O)N1CCCCCCC1)C(=O)OC"
assigned_class = "Y"

[[record]]
compound = "CC(C)C[C@@H]1NC(=O)[C@@H]2C[C@H](C(=O)NCCCCCC[N+](C)(C)C)[C@H](c3cccc(OCCO)c3)N2C1=O"
assigned_class = "N"


As a next step, examine the compound that follows.
Could you verify whether the entry CC(=O)n1cc(C(O)C2C=CC3C(=O)N(c4ccccc4)C(=O)C3N2Nc2ccc(C(C)C)cc2)c2ccccc21 (stereo unspecified) shows composite z-score of no less than -0.007?
N

----------
Test System: Calmodulin-1 (Homo sapiens) (UniProt P0DP23)
Assay Notes: calcium-bound CALM1 binders on microarrays, profiling panel, artefact control for SMM control-protein annotation, biochemical, small-molecule microarray, Cy5-labelled CALM1, plus calcium (AID 1112);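 also: score merges spot fluorescence with signal to noise from triplicate slides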
Experimental Conditions: Cy5-CALM1 binding fluorescence, higher = more signal
Reported Endpoint: composite z-score
Quick one: just the number, no unit, thanks!

Observe how each entry below is paired with its result.
[[record]]
molecule = "CCOC(=O)C=Cc1ccccc1O"
numeric_readout = -0.72

[[record]]
molecule = "COCCOC(=O)N1C(=O)[C@@]2(c3ccccc31)[C@H](c1ccccc1OCCO)N1[C@H](c3ccccc3)[C@H](c3ccccc3)OC(=O)[C@H]1[C@@H]2C(=O)N1CCCCCCC1"
numeric_readout = 1.47

[[record]]
molecule = "O=C1C2C=CC(C(O)C=Cc3ccc([N+](=O)[O-])cc3)N(Nc3ccccc3)C2C(=O)N1c1ccccc1 (stereo not drawn)"
numeric_readout = -0.0507

[[record]]
molecule = "[N-]=[N+]=NCc1ccccc1[C@H]1OC(c2ccc(OCCCO)cc2)=N[C@@]1(CCS(=O)(=O)c1ccccc1)C(=O)NCc1ccccc1"
numeric_readout = 0.84

[[record]]
molecule = "CC(C)(C)OC(=O)CC[C@]1(C(=O)N2CCCCC2)COC(c2ccc(OCCCO)cc2)=N1"
numeric_readout = -0.257


Fill blank: measured composite z-score of the molecule COCC(=C=CC[C@H](O)c1cccc(OCCO)c1)C[C@H](O)COCc1ccccc1 is ____.
-0.135

Look up composite z-score for this molecule: O=C1NC(=O)C2C1C=CC(C(O)c1ccccn1)N2Nc1ccc(Cl)cc1Cl (stereo not drawn)
0.819

If you can, please state the reported composite z-score value of C#C[C@@H](CC)O[Si](C#CCCCC#N)(C(C)C)C(C)C .
-0.104

----------
Assay Notes: S. cerevisiae growth modulation with rapamycin, primary screen, strain BY4716, OD600, 96 h (AID 1091); also: test concentration not given here
Experimental Conditions: higher = more signal, called active from +8 up or from −8 down
Reported Endpoint: z-score
The response must contain the number and no unit.

Example results:
[[record]]
compound = "O=C1C[C@@](C(=O)NCC(F)(F)F)(c2ccc([N+](=O)[O-])cc2)[C@@H](c2ccc(CO)cc2)N1CC12CC3CC(CC(C3)C1)C2"
reported_endpoint = "z-score"
numeric_readout = 1.77

[[record]]
compound = "O=C(N1CCOCC1)[C@@]1(CCS(=O)(=O)c2ccccc2)N=C(c2ccc(OCCCO)cc2)O[C@H]1c1ccccc1"
reported_endpoint = "z-score"
numeric_readout = -0.0156

[[record]]
compound = "CCCCCCCCCCC(O)C1C=CC2C(=O)N(C)C(=O)C2N1Nc1cc(OC)c(OC)c(OC)c1 (stereo not drawn)"
reported_endpoint = "z-score"
numeric_readout = -1.17

[[record]]
compound = "CC(=O)N1CC(C(O)C2C=CC3C(=O)NC(=O)C3N2Nc2ccc(Cl)cc2Cl)c2ccccc21 (stereo not drawn)"
reported_endpoint = "z-score"
numeric_readout = 1.81


For the compound [N-]=[N+]=NCc1ccccc1[C@H]1OC(c2ccc(OCCCO)cc2)=N[C@@]1(Cc1ccccc1)C(=O)NCCN1CCOCC1 , what z-score is on record?
-0.31

I would be grateful if you could share the reported z-score for COc1ccc(C(O)C2C=CC3C(=O)N(c4ccccc4)C(=O)C3N2Nc2ccccc2)cc1 (stereo not drawn) .
0.211

Tell me the measured z-score of CN1C(=O)C2C=CC(C(O)c3cc(C(F)(F)F)cc(C(F)(F)F)c3)N(Nc3ccccc3)C2C1=O (stereo not drawn) , please.
-0.785

State the recorded z-score for this entry: CCCNC(=O)[C@@]1(C)c2ccccc2C(=O)N(Cc2ccccc2)[C@H]1c1ccc(CO)cc1
-0.871

----------
Tested on: Neuregulin-1 EGF-like domain
Assay Notes: binders of neuregulin-1 EGF-like domain, primary screen, biochemical, small-molecule microarray, 635 nm fluorescence (AID 1081);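 also: binding of the protein to compounds printed on small-molecule microarray slides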
Experimental Conditions: small-molecule microarray binding, higher = more signal
Below, each of the compounds is paired with its reported composite z-score value.
Note: the reply should be a number with no unit written.

Worked cases, composite z-score given:
[[record]]
compound = "CCCC=C(CCC)[C@@H](NC(=O)CCc1ccccc1)c1ccc(C(F)(F)F)cc1"
test_system = "Neuregulin-1 EGF-like domain"
numeric_readout = 0.969

[[record]]
compound = "C=CCN1C(=O)[C@@]2(O[C@@H](CCO)[C@H]([Si](C)(C)c3ccc(OC)cc3)[C@H]2C)c2cc(N3CCOC3=O)ccc21"
test_system = "Neuregulin-1 EGF-like domain"
numeric_readout = 1.09

[[record]]
compound = "[N-]=[N+]=NC[C@H](Cc1ccccc1)NC(=O)c1ccccc1"
test_system = "Neuregulin-1 EGF-like domain"
numeric_readout = -0.123


So what does the record say about composite z-score for CC(C)OC(=O)CC(=O)CC(O)c1ccc([N+](=O)[O-])cc1 (centres undefined) ?
0.438

----------
Assay Notes: binders of probe aFST on microarray, primary screen, stem cell growth factor project, biochemical, small-molecule microarray, fluorescence 635/667 (AID 1086);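 also: score merges 667 nm fluorescence with signal-to-noise of each printed compound spot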
Experimental Conditions: higher = more signal
Reported Endpoint: composite z-score

[[record]]
molecule = "C=C(COC)/C(=C/C[C@@H](OC(=O)c1ccncc1)c1ccccc1OCCO)c1cc(C(=O)OC)ccc1OC"
reported_endpoint = "composite z-score"
result = -0.3

[[record]]
molecule = "C=CCNC(=O)[C@H]1[C@@H]2C(=O)O[C@@H](c3ccccc3)[C@@H](c3ccccc3)N2[C@@H](c2ccc(O)cc2)[C@]12C(=O)N(C(=O)OCCOC)c1ccc(C#CCC(C(=O)OC)C(=O)OC)cc12"
reported_endpoint = "composite z-score"
result = 0.376

[[record]]
molecule = "C=CCN1C(=O)[C@]2(O[C@H](CCO)[C@@H]([Si](C)(C)c3ccc(OC)cc3)[C@@H]2C)c2cc(NC(=O)c3ccc(OC)cc3)ccc21"
reported_endpoint = "composite z-score"
result = 0.346

[[record]]
molecule = "CC(C)C(=C=CC[C@@H](O)c1cccc(OCCO)c1)C[C@@H](O)c1ccccn1"
reported_endpoint = "composite z-score"
result = -0.0246

[[record]]
molecule = "COC(=O)C(CC#Cc1ccc2c(c1)[C@]1(C(=O)N2)[C@H](c2ccc(O)cc2)N2[C@H](c3ccccc3)[C@H](c3ccccc3)OC(=O)[C@H]2[C@@H]1C(=O)N1CCCCCCC1)C(=O)OC"
reported_endpoint = "composite z-score"
result = 2.44

[[record]]
molecule = "COC(=O)[C@@]1(Cc2ccc(F)cc2)[C@H]2c3cc(C(=O)N(C)C)n(Cc4ccc(O)c(OC)c4)c3C[C@H]2CN1C(=O)c1ccccc1"
reported_endpoint = "composite z-score"
result = 0.675

[[record]]
molecule = "COCCOC(=O)N1C(=O)[C@@]2(c3cc(C#CCCO)ccc31)[C@H](C(N)=O)[C@H]1C(=O)O[C@H](c3ccccc3)[C@H](c3ccccc3)N1[C@@H]2c1ccc(OCCO)cc1"
reported_endpoint = "composite z-score"
result = 0.439

[[record]]
molecule = "CC(C)c1ccc(NN2C(C(O)Cc3ccccc3)C=CC3C(=O)N(c4ccccc4)C(=O)C32)cc1 (stereo not given)"
reported_endpoint = "composite z-score"
result = 1.36

[[record]]
molecule = "C=CC1c2cc(O)c(OC)cc2CCN1Cc1ccc([N+](=O)[O-])o1 (stereo not given)"
reported_endpoint = "composite z-score"
result = 0.457

[[record]]
molecule = "CC(C)(C)OC(=O)CC[C@]12N=C(c3ccc(OCCCO)cc3)O[C@H]1c1ccccc1N(Cc1ccccc1)C2=O"
reported_endpoint = "composite z-score"
result = 0.259


// returns reported composite z-score for input CC(C)CNC(=O)[C@@]1(c2ccc([N+](=O)[O-])cc2)CC(=O)N(C2CCCCC2)[C@@H]1c1ccc(CO)cc1
0.859

Please look up its composite z-score: C#C[C@@H](CC)O[Si](C#CCCCC#N)(C(C)C)C(C)C
-0.241

So what does the record say about composite z-score for C=C/C=C/[C@@H]1C(=C)CN([C@@H](Cc2ccccc2)C(=O)OC)[C@H]1[C@@H](O)Cc1ccccc1 ?
0.101

Look at this molecule and give its reported composite z-score. CC=CC(O)C1C=CC2C(=O)NC(=O)C2N1Nc1ccccn1 (stereo not given)
0.128

State the recorded composite z-score for this entry: COc1ccc([Si](C)(C)[C@@H]2[C@@H](CCn3cc([C@H](O)c4ccccc4)nn3)O[C@]3(C(=O)N(c4ccccc4)c4ccccc43)[C@H]2C)cc1
-0.0029

These entries and their values trace back to PubChem BioAssay.
